# Assayed system: RANTES/MIP-1α chemokine receptor (CCR1) in THP-1 cell membranes (Homo sapiens)
# Construct: Membranes were prepared from THP-1 cells (ATCC #TIB202); host or cells: THP-1 cells (membrane preparation)
# Test name: Receptor binding assay: 125I-RANTES or 125I-MIP-1α binding to THP-1 cell membranes
# Test context: inhibitor concentration required for 50% inhibition of specific binding; 125I-RANTES or 125I-MIP-1α as ligand, THP-1 cell membranes; read-out: IC50
pIC50: −log10 of the molar value.
Recorded pIC50, one value per entry.

Problem: Which value of pIC50 has been reported for CC(O)C1(c2ccc(Cl)cc2)CCN(CCC=C2c3cc(C(C)(C)O)ccc3OCc3ncccc32)CC1 (centres unmarked) in the records?
Solution: > 5.00

Problem: # input compound: CC(C)(O)c1ccc2c(c1)C(=CCCN1CCN(c3ccc(Cl)cc3)C(C#N)C1)c1cccnc1CO2 (centres unmarked) ; wanted: its pIC50
Solution: > 5.00

Problem: Any idea what its pIC50 is? The compound is CC(C)(O)c1ccc2c(c1)C(=CCCN1CCC(O)(c3ccc(Cl)cc3)C(C)(C)C1)c1ccc[n+]([O-])c1CO2 (centres unmarked)
Solution: > 6.00

Problem: Look up pIC50 for this compound: CCN(C(=O)C1CCN(CCC=C2c3cc(C(C)(C)O)ccc3OCc3ncccc32)C1)c1ccc(Cl)cc1 (centres unmarked)
Solution: > 6.00

Problem: I'd like to know its pIC50. The compound in question is CC(C)(O)c1ccc2c(c1)C(=CCCN1CCC(N(Cc3ccc(Cl)cc3)S(C)(=O)=O)C1)c1cccnc1CO2 (centres unmarked)
Solution: > 5.00

Problem: Need pIC50 of CC(C)(O)c1ccc2c(c1)C(=CCCN1CCC(N(CCO)Cc3ccc(Cl)cc3)C1)c1cccnc1CO2 (centres unmarked) , thanks.
Solution: > 6.00

Problem: Returns the measured pIC50 for the input compound. Input: OC1(c2ccc(Cl)cc2)CCN(CCC=C2c3cc(Br)ccc3OCc3ccsc32)CC1
Solution: > 6.00

---

# Assayed system: RANTES/MIP-1α chemokine receptor (CCR1) in THP-1 cell membranes (Homo sapiens)
# Construct: Membranes were prepared from THP-1 cells (ATCC #TIB202); host or cells: THP-1 cells (membrane preparation)
# Sequence (P32246 1-355): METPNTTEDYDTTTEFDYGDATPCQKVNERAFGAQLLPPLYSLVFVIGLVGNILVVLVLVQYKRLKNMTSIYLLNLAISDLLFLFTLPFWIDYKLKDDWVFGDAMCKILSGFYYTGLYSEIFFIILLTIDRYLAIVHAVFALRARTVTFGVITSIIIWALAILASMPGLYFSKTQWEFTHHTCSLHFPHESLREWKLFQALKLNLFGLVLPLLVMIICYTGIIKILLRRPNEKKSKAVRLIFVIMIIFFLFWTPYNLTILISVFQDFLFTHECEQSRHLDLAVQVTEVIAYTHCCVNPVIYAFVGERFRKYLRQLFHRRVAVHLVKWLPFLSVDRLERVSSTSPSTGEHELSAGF
# Test name: Receptor binding assay: 125I-RANTES or 125I-MIP-1α binding to THP-1 cell membranes
# Test context: inhibitor concentration required for 50% inhibition of specific binding; 125I-RANTES or 125I-MIP-1α as ligand, THP-1 cell membranes; read-out: IC50
Quantity: IC50

CC(C)(O)c1ccc2c(c1)C(=CCCN1CCC(C(=O)c3ccc(Cl)cc3)CC1)c1cccnc1CO2 :: < 10 µM

Problem: Recorded IC50 for Cc1cc(Cl)ccc1C1(O)CCN(CCC=C2c3cc(C(C)(C)O)ccc3OCc3ncccc32)CC1 with RANTES/MIP-1α chemokine receptor (CCR1) in THP-1 cell membranes (Homo sapiens), please?
Solution: < 1 µM

Problem: Form entry - test system: RANTES/MIP-1α chemokine receptor (CCR1) in THP-1 cell membranes (Homo sapiens); read-out: IC50; molecule: CC(C)(O)c1ccc2c(c1)C(=CCCN1CCC(O)(c3ccc(Cl)c(Cl)c3)CC1)c1cccnc1CO2
Solution: < 1 µM

Problem: Recorded IC50 for OCCCc1ccc2c(c1)C(=CCCN1CCC(O)(c3ccc(Cl)cc3)CC1)c1cccnc1CO2 with RANTES/MIP-1α chemokine receptor (CCR1) in THP-1 cell membranes (Homo sapiens), please?
Solution: < 1 µM
